ASSAY INFO: label from the status in PepcDB records;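 also: failed if final PepcDB status was selected cloned or expressed and not failed if soluble or beyond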

# ORDERED RESIDUES, protein production
records = [
    ("MPKLSLIIATFNDAIGLARCLDSIEQQTVRADCEVLVFDNASSDGTVELLQGWSDRLTYWESERDRGIYHAWNKAIARASGDYVAFVGADDYYASPTALQQLLELTVGQPDLVSGRNAYYSPEGKFLRTWGYAWDWQRMRESMILSHPGLLMRRSLFDRIGLFDERFRICGDYDWLLRLPPDLKAVHTNQVILCLSMGGLSNTRISRVFAETFQAQRRQPDLGRWRSGVYWLINWLKFGRRKLIGLA", "failed"),
    ("ARNGDDCPLGPGRCCRLHTVRASLEDLGWADWVLSPREVQVTMCIGACPSQFRAANMHAQIKTSLHRLKPDTEPAPCCVPASYNPMVLIQKTDTGVSLQTYDDLLAKDCHCI", "failed"),
]

* * *

ASSAY INFO: label from the status in PepcDB records
MEASUREMENT TYPE: protein production

# ORDERED RESIDUES, OBSERVED RESULT
rows = [
    ("MFVFGAYWFDCGERAVLPANSRGALRPQCTRLRFWRGRYWHRGAVSALRRVRPLSASTPSPRVLDGSQSLADTPDNVQQLLQHMSQELDSVVQSMVHLEEYALEQVEKLKGAMEADLRKLALYEEEQAFAQKLTEQLQKKEGAVFEAMRHFLFHVVGLQEQTVAITNELQVLHEFVSENHERVELVLESLRERGLFGSRQDVFEGEVKKKLDRFDPEI", "failed"),
    ("MIVDFETHFITEACIDYLTQRQEVPKLVPDLNGAYTMCFTPDVSLFHTSALMEELLSLNEQRLAIMDQAGVTIQVLSLTTINGIDSCPGDENKSTALAREVNDQLYSAIQRHPERFKGFASISPYDVKEGVKELERAISQLGFVGWLTHSNFGQDNYLDDKTYWPLLEAAEGLNIPIYLHPNVPIMREFGKYGFALGGSALGFEFDTALCLMRMILGGVFDAFPKLKIMLGHLGETMPFLMERLDHLYRIPDLKAYRPSIQRIPSEVLRQNVYITTSGRFFVPALRYVLEVMGEDRVLFASDYPMESLLDATRFIQDSDLSNQTKQKIFSINAKNLNLILEHHHHHH", "failed"),
    ("MTASTALTVAIWIGVMLIGGIGSVLRFLVDRSVARRLARTFPYGTLTVNITGAALLGFLAGLALPKDAALLAGTGFVGAYTTFSTWMLETQRLGEDRQMVSALANIVVSVVLGLAAALLGQWIAQI", "failed"),
]

* * *

ASSAY INFO: label from the status in PepcDB records

# ORDERED RESIDUES, protein production
measured = [
    ("MMNTKVALKQLMATHFITVDVPCPECGGAMTAWKEPTPDTPPRCPPVCMECGYRSVKKKEATTAKNLYESSLIKKAKDYFLNGSVLTDRKSLHKKISNYYPSNQESTKAKNISMEFCEKTLLGEIHHLILTGGVGVGKSHLAIGCLNEILVKSNYSKKVLFVSYRELLEQLKFAMNDEEARKAITGVAMSEIKAADVVVLDDIGAELGDFNKRDEKGNLILSRASNFDIDTLTGILESRIDKPTIITSNLKSKEIKYCYGERIVSRMATHSNGFMHRFTNTKDYRLKTALEHHHHHH", "not failed"),
    ("MTKAETSIGVFYVSEYGYSDRLAQAIINGITKTGVGVDVVDLGAAVDLQELRELVGRCTGLVIGMSPAASAASIQGALSTILGSVNEKQAVGIFETGGGDDEPIDPLLSKFRNLGLTTAFPAIRIKQTPTENTYKLCEEAGTDLGQWVTRDRSIKAMKSLGLEHHHHHH", "not failed"),
]

* * *

ASSAY INFO: label from the status in PepcDB records
MEASUREMENT TYPE: protein production

# ORDERED RESIDUES, MEASUREMENT TYPE, OBSERVED RESULT
records = [
    ("MEIEYIKDYRDINQEDDTVLILGYFDGLHRGHKALFDKAREVANKEGLKVVVFTFTESPKLAFSRFSPELLLHITYPKKRYEKFADYGVNKLYLVDFTSKFSKVSSDHFITHYIKNLKAKHIVVGFDYKFGHNRTDSDYLTRNFEGQVYTIEEIKEDHRKISATWIRKLIQEGNVVKANHLLGYDLSTRGRVVHGDARGRTIGFPTANLAPIDNTYLPADGVYVTNVIVANKIYRSMTSLGKNVTFGGKELRLEVNIFDFDEEIYGEIIEIVWLDKIRDMEKFEGIEDLTDRLEYDKRTALNWKKDSKLS", "protein production", "failed"),
    ("MHNHNNRLVITPGEPAGVGPDLAITLAQQDWPVELVVCADPALLLARASQLNLPLQLREYQADQPAIAQQAGSLTILPVKTAVNVVPGKLDVGNSHYVVETLAKACDGAISGEFAALVTGPVQKSIINDAGIPFIGHTEFFADRSHCQRVVMMLATEELRVALATTHLPLLAVPGAITQASLHEVITILDNDLKTKFGITQPQIYVCGLNPHAGEGGHMGHEEIDTIIPALNTLRQQGINLIGPLPADTLFQPKYLQHADAVLAMYHDQGLPVLKYQGFGRAVNITLGLPFIRTSVDHGTALELAATGTADVGSFITALNLAIKMINNSNE", "protein production", "not failed"),
    ("MAQKVEAGGGAGGASWDDGVHDGVRKVHVGQGQDGVSSINVVYAKDSQDVEGGEHGKKTLLGFETFEVDADDYIVAVQVTYDNVFGQDSDIITSITFNTFKGKTSPPYGLETQKKFVLKDKNGGKLVGFHGRAGEALYALGAYFATTTTPVTPAKKLSAIGGDEGTAWDDGAYDGVKKVYVGQGQDGISAVKFEYNKGAENIVGGEHGKPTLLGFEEFEIDYPSEYITAVEGTYDKIFGSDGLIITMLRFKTNKQTSAPFGLEAGTAFELKEEGHKIVGFHGKASELLHQFGVHVMPLTN", "protein production", "failed"),
    ("MSEAKWLSLLGLAARARQLLTGEEQVVKAVQNGQVTLVILSSDAGIHTKKKLLDKCGSYQIPVKVVGNRQMLGRAIGKHERVVIGVKDAGFSRKLAALIDE", "protein production", "not failed"),
    ("MTHVQTMLETYPKDLGDIDRAKLIECIKACFECAQTCTACADACLSEDMVAELTKCIRTNLDCADICVATGNMLSRHTGYDANVTRAVLEACRTVCKACADECEQHASMHEHCRACAEACRRCEKACADLLGSLG", "protein production", "failed"),
    ("APFFEMKLKHYKIFEGMPVTFTCRVAGNPKPKIYWFKDGKQISPKSDHYTIQRDLDGTCSLHTTASTLDDDGNYTIMAANPQGRISCTGRLMVQAVN", "protein production", "not failed"),
    ("MTDDPTLWAQRLEEAVVGLGANGDRSHDLAHAKRVLRTALALADGVEDQGEGPVDRLVLTAAAYLHDIVAIEKNDPRRSLASRLSAAKAREILGGLDFPAGRQDGVAHAIEAHSFSAGIAPRSLEARILQDADRMESLGAIGVARTFYVAGRLGSALFHDDDPLAFARPLDERAYALDHFFTKLLTLPATMTTAPGRAMAGERAELLRAFAEALAQEVSGAAAPGPRPARPSDGEAPSPLPVWPGSGTRTR", "protein production", "failed"),
    ("MNAARYAEHLAIFVEVARGGSFSAVARRHGATPSTITRKIDMLEEFVGTNLLVRSTRALLLTEAGETLFARGVSVLEALTDIHNEVIALSDSMYGTLRISCLPTFGKLHVLPWLADLQQRHPSMRIDLDLTERLTNPSVERLDAAIRIGKLKDSSLFAKQIGTQRWVICASPDYLRQRGHPSDLEDLRRLRLIDKLHDPHSMCWRRLVEKGHIDQIEAAFRCDDFEAMRQAALCGLGAAFLPDWVIAQDLAAGALIRLFDDPEGREDGIHLVRALPKMSAKLEVFHQALSNHLGQVRIGGCLPASR", "protein production", "failed"),
    ("MLARRIVAKHVTKTTALAMLGTTIVLVILQVLFTYLGELSNLKADYSAWQAFLYVLWGAPRYLYEILPISALIGAILGLGTLASNSELIVMRSVGISLWRIVGWVIRSALVLVLLSFALSEWVVPYTNERANSVKSHQSVAALGEVRGYWSREGQRFIYVDYANSQGQLKRIQVVDFDDNYRLKSVTNAEQGQFVKDGQWLLNHSQQMAIQGQGDAVLANAAKQPFSLALQPKYVHMVTIDPEDLSFSQLVSFMNYMREYSQVPKTYQLAFWKKVASPFALITLVLVACSFIFGPLRQQSMGFRLVIALFIGLGFYYLQDFLGYASLVYNPSPAWFVLGPIVLMFVAGSYLLYRAR", "protein production", "failed"),
    ("MTKQDIRVALTIVALVLGLGWAIGYGIGLMTRPASVVPENPPHDALKSPARKAPRSGAVSGDTRYPDYEELYVNDYADLLDPAAEDRLRDKLIALYGHNGVEMTVLTIDTMGTYGHGGAIEPFATGLFNNWGIGDAERNDGVLVLIVRFDRKMRIEIGAGYERAWDARMQRVIDAGFLPYFRRDEYQEGIEAGVDETIRELTGAYPGAWDMGTAQRGWSWLARAVDRIGEWVLSLLLVPLGGAALWVRRYLRNRTRPCAQCRTPMLRAGEEADDEHLDGGQRLEEYLKSVDYDVWHCPDCGHIDIHRYKSWFSGYGACPQCNYRTLSTTSTVLSAATKTREGRKRVEYDCAHCGHHDSEIRTIPKISDSNSGGSGRSSFGGGSSSGGGASGSW", "protein production", "failed"),
    ("MRIKLIIVEGKTDESFFKVLLEKLYGFREAKKLTPEFPIGKWGFRIGEHPLVLEKDNIALVIIHAEGKQRIPKVLKSVLDSVKLGLLNVEEVYVVRDVDEGNDVFEWVLSFLREREVRVDNGAIVTEGVKIYPYGMGNLTLNEPFVKEKKELELSLAYLAKLDGILEKYRGSMRALSQDKGDKLTPKDVMHILSIANDYTGDCLSGLYEKYIGIMIHRNRELLIRFLSEVNLLPLLERMVG", "protein production", "not failed"),
    ("SAQGLIEVERKFAPGPDTEERLQELGATLEHRVTFRDTYYDTSELSLMLSDHWLRQREGSGWELKCPGVTGVSGPHNEYVEVTSEAAIVAQLFELLGSGEQKPAGVAAVLGSLKLQEVASFITTRSSWKLALSGAHGQEPQLTIDLDSADFGYAVGEVEAMVHEKAEVPAALEKIITVSSMLGVPAQEEAPAKLMVYLQRFRPLDYQRLLEAASSGEATGDSAS", "protein production", "not failed"),
]
